Here's a roundup of IC50 values tested on 3',5'-cyclic-AMP phosphodiesterase 4A (Homo sapiens, UniProt P27815), taken from various published works.
Sequence (P27815 whole entry): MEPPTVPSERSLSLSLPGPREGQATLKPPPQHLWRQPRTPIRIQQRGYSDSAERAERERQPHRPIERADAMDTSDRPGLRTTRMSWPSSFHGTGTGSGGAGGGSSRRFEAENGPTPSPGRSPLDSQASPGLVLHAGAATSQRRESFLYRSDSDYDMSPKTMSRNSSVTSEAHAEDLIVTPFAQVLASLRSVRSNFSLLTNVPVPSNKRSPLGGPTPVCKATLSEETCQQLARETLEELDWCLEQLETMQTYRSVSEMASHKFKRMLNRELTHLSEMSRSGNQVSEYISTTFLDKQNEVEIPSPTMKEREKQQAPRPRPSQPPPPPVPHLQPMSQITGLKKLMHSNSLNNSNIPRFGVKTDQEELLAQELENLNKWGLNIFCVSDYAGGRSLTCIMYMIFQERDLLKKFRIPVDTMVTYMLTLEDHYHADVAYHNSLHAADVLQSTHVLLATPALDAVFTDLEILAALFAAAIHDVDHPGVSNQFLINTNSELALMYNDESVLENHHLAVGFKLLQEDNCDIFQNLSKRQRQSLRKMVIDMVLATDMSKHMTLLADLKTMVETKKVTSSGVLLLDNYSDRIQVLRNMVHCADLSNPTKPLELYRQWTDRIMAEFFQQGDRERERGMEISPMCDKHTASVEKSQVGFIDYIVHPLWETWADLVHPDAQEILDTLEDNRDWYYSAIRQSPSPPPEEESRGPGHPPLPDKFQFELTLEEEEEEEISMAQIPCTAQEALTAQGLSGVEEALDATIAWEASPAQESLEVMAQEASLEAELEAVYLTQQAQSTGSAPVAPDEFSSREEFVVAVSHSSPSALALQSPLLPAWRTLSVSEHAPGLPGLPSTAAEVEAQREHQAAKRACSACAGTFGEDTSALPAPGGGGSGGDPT
Answer format reminder: number followed by unit.

Readout IC50 for N#Cc1cccc(-c2nc([C@H]3CC[C@H](C(=O)O)CC3)cc3cccnc23)c1 , test system 3',5'-cyclic-AMP phosphodiesterase 4A (Homo sapiens, UniProt P27815), was 160 nM

Record O=C(NC1CC1)c1cn(-c2cccc(C#Cc3ccc[n+]([O-])c3)c2)c2ncccc2c1=O ; system 3',5'-cyclic-AMP phosphodiesterase 4A (Homo sapiens, UniProt P27815); IC50 = 6.7 nM

3',5'-cyclic-AMP phosphodiesterase 4A (Homo sapiens, UniProt P27815) data for CC1(C)CCc2c(-c3ccoc3)nc3sc4c(NCCN5CCOCC5)ncnc4c3c2C1 ; its IC50: 9 nM
